All figures here come from patent US20240287489A1.

Test system: recombinant chitinase C1
Assay: Effect of metallic ions and chemical compounds on chitinase activity
Assay type: biochemical, P. orarium
Conditions: relative to standard MAT buffer control (100%); ions and EDTA 1 mM, Tween 20 0.5% v/v, SDS 0.5% w/v; 2 μM enzyme
Measured Parameter: [%] Residual activity C1 (%)
Numbers only, in %.

In [3]: df
Out[3]:
                               compound        measured_parameter  measurement
0  O=C(O)CN(CCN(CC(=O)O)CC(=O)O)CC(=O)O  [%] Residual activity C1         68.9

Could you report [%] Residual activity C1 for every entry in the following list?
1. [Mg+2]
2. CCCCCCCCCCCCOS(=O)(=O)[O-].[Na+] [SDS, sodium dodecyl sulfate]
3. [Zn+2]
4. [K+]
5. [Ca+2]
6. [Cu+2]
7. [Ni+2]

99.8
1.5
30.5
100.1
92.7
11.1
76.6

---

Provide the reported [%] Residual activity C5 of each item.
Test system: recombinant chitinase C5
Assay: Effect of metallic ions and chemical compounds on chitinase activity
Type: biochemical, P. orarium
Settings: relative to standard MAT buffer control (100%); ions and EDTA 1 mM, Tween 20 0.5% v/v, SDS 0.5% w/v; 2 μM enzyme
Note: a bare number is incomplete; add the unit.

Illustrative cases are given below, each with its answer.
>>> df
                                   compound        measured_parameter  measurement
0                                    [Zn+2]  [%] Residual activity C5   0.6 ± 0.5%
1  CCCCCCCCCCCCOS(=O)(=O)[O-].[Na+] [SDS, sodium dodecyl sulfate]  [%] Residual activity C5  19.9 ± 0.3%
2                                    [Cu+2]  [%] Residual activity C5   3.9 ± 2.9%
3      O=C(O)CN(CCN(CC(=O)O)CC(=O)O)CC(=O)O  [%] Residual activity C5  28.0 ± 0.9%
4                                    [Mg+2]  [%] Residual activity C5  25.8 ± 0.9%
5                                    [Ca+2]  [%] Residual activity C5  21.3 ± 0.1%
6                                    [Ni+2]  [%] Residual activity C5   5.6 ± 0.3%

Moving on to another compound below.
What value of [%] Residual activity C5 has been reported for the following compound? [K+]
28.6 ± 0.4%

---

Tested on: recombinant chitinase C2
Assay: Effect of metallic ions and chemical compounds on chitinase activity
Type: biochemical, P. orarium
Settings: relative to standard MAT buffer control (100%); ions and EDTA 1 mM, Tween 20 0.5% v/v, SDS 0.5% w/v; 2 μM enzyme
# binarize [%] Residual activity C2: threshold 20% inclusive, high side 1, low side -1

Examples from the recorded data:
>>> df
         molecule       experimental_target  label_class
0  [Mg+2] [Mg^2+]  recombinant chitinase C2            1
1  [Ca+2] [Ca^2+]  recombinant chitinase C2            1
2  [Cu+2] [Cu^2+]  recombinant chitinase C2           -1
3  [Zn+2] [Zn^2+]  recombinant chitinase C2           -1
4     [K+] [K^2+]  recombinant chitinase C2            1

Could you verify whether the entry [Ni+2] [Ni^2+] shows [%] Residual activity C2 of no less than 20%?
1

Could you verify whether the entry CCCCCCCCCCCCOS(=O)(=O)[O-].[Na+] [SDS, sodium dodecyl sulfate] shows [%] Residual activity C2 of no less than 20%?
1

---

Tested on: recombinant chitinase C3
Test: Effect of metallic ions and chemical compounds on chitinase activity
Assay type: biochemical, P. orarium
Settings: relative to standard MAT buffer control (100%); ions and EDTA 1 mM, Tween 20 0.5% v/v, SDS 0.5% w/v; 2 μM enzyme
Measured Parameter: [%] Residual activity C3 (%)
Give bare numbers, in %.

Examples with their reported [%] Residual activity C3 follow.
>>> print(df.to_string())
   molecule       experimental_target  measurement
0    [Ni+2]  recombinant chitinase C3         64.8
1    [Mg+2]  recombinant chitinase C3         68.8

Hey, can you go through the list below and give me [%] Residual activity C3 for every item?
1. CCCCCCCCCCCCOS(=O)(=O)[O-].[Na+] [SDS, sodium dodecyl sulfate]
2. [Ca+2]
3. O=C(O)CN(CCN(CC(=O)O)CC(=O)O)CC(=O)O
4. [Zn+2]
5. [K+]

2.4
94.7
80.8
21.7
72.6

Need [%] Residual activity C3, item [Cu+2]
16.9
